Every entry's value here was drawn from ChEMBL document CHEMBL1201862.

Biological target: Rac GTPase-activating protein 1 (Homo sapiens, UniProt Q9H0H5)
Sequence (Q9H0H5 whole entry): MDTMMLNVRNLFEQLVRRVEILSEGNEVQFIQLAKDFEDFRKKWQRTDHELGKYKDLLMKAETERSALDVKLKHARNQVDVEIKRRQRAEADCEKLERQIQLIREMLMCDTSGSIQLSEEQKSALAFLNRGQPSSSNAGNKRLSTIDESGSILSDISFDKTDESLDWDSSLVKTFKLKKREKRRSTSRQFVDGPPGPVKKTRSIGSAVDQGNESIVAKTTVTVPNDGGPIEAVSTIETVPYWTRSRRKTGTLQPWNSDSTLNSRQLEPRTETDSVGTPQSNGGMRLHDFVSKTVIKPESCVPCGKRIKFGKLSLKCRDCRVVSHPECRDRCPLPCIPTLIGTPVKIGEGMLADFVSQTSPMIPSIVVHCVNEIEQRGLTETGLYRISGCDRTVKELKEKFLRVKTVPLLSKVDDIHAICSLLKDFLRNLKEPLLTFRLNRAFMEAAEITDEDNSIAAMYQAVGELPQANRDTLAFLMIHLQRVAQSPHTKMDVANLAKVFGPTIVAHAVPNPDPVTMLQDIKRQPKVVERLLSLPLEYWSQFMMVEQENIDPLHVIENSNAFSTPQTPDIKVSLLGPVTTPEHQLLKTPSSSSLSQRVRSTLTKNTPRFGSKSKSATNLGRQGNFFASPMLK
Test: blockers of MgcRacGAP-driven Rac1 GTP hydrolysis – biochemical, ADP Hunter fluorescence, primary and confirmatory, confirmation (AID 624330)
Assay type: functional
Activity calls are given as the source filed them. No rule for the calls is given here.
Kindly state IC50 for each of the entries shown.

Recorded IC50, per entry:
[
  {
    "compound": "CCOC(=O)c1sc2nc(CSc3ccccc3)nc(N3CCCN(C)CC3)c2c1C",
    "result": "149 µM (active)"
  },
  {
    "compound": "O=C1/C(=C/c2ccccc2[N+](=O)[O-])COc2ccccc21",
    "result": "101 µM (active)"
  },
  {
    "compound": "COc1cc(C=C2CN(C)C(=O)C2=O)ccc1O",
    "result": "19.6 µM (active)"
  },
  {
    "compound": "c1cc2c(cc1CNc1ccc(N3CCOCC3)cc1)OCO2",
    "result": "6.57 µM (active)"
  },
  {
    "compound": "CCN(CC)c1ccc(/C=N/NC(=O)OC)c(O)c1",
    "result": "66 µM (active)"
  },
  {
    "compound": "CN(C)c1ccc(/C=C2/C(=O)NC(=O)N(Cc3ccco3)C2=O)cc1",
    "result": "142 µM (active)"
  },
  {
    "compound": "CCCc1c(C)nc2ccc(C(=O)O)cc2c1S",
    "result": "72.6 µM (active)"
  },
  {
    "compound": "O=C(NC1CCN(C(=O)N2c3ccccc3Sc3ccccc32)CC1)c1ccccc1F",
    "result": "115 µM (active)"
  },
  {
    "compound": "Cc1cc(N(C)C)ccc1N=Nc1ccc(N)cc1",
    "result": "29.3 µM (active)"
  },
  {
    "compound": "COc1ccc2c(c1)-c1nc(N)sc1CC2",
    "result": "29.5 µM (active)"
  }
]

Return reported IC50 values for all items listed beneath this line.
1. COc1cc(/C=N/n2c(S)nnc2-c2cc(C)[nH]n2)cc(OC)c1OC
2. COc1ccc(CN2CCN(Cc3ccccc3OC)CC2)cc1
3. Oc1ccc(/C=N/Nc2ccc(C(F)(F)F)cn2)c(O)c1
4. O=C(N/N=C/c1ccc(O)c2ccccc12)c1cccnc1
5. O=C(NN=Cc1ccc(O)cc1)c1cc[n+](Cc2ccccc2)cc1
6. CC1CCCC(N2CCN(C(=O)c3ccc([N+](=O)[O-])cc3)CC2)C1 (configuration not stated)
7. O=c1c(-c2ccccc2)c[nH]n1-c1cccc([N+](=O)[O-])c1

Result:
82.2 µM (active)
74.7 µM (active)
37 µM (active)
127 µM (active)
137 µM (active)
167 µM (active)
48.4 µM (active)
